Assay: Solubility of compound in pH 6.8 with TCA
Format: physicochemical
Readout Kind: solubility (µg/mL)

                            molecule_smiles  numeric_value
0  Cc1cccc(Cc2nc3cc(O[C@H]4CC[C@@H](C(=O)O)CC4)ccc3n2C)c1             24

----------
Assay: AUC in rat at 0.5 mg/kg, iv
Assay type: ADME, organism-based
Parameters: dose 0.5 mg/kg
Details: in vivo
Readout Kind: AUC (ng·h/mL)

>>> df
                            molecule_smiles  readout_kind  numeric_value
0  Cc1cccc(Cc2nc3cc(O[C@H]4CC[C@@H](C(=O)O)CC4)ccc3n2C)c1           AUC           4970

----------
Target: Long-chain-fatty-acid--CoA ligase 1 (Mus musculus)
Sequence (P41216 whole entry): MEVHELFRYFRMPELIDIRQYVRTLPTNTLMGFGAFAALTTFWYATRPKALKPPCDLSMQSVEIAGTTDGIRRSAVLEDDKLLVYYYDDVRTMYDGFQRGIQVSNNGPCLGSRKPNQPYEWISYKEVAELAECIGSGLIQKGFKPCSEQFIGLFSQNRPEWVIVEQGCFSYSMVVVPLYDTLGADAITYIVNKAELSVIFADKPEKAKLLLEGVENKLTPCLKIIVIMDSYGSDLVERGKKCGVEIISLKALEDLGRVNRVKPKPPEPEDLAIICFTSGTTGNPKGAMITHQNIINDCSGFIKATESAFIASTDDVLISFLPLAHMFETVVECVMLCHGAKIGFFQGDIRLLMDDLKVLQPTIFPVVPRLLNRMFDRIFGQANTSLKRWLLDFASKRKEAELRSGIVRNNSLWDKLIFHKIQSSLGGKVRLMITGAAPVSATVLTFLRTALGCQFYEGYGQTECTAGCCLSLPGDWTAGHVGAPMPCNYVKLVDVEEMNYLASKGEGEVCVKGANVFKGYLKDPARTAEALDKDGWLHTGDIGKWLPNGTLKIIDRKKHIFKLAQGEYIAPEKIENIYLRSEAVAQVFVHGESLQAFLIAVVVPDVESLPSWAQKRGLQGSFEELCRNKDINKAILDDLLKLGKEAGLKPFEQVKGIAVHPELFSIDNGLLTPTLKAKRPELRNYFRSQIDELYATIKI
Experiment: Inhibition of recombinant mouse ACSL1 assessed as reduction in […] prodution incubated for 90 mins in presence of Coenzyme A, ATP and MgCl2 by MALDI-TOF MS analysis
Readout Kind: IC50 (µM)

>>> df
                             molecule_smiles  readout_kind  endpoint_unit  comparator  numeric_value
 0  O=C(O)[C@H]1CC[C@@H](Oc2ccc3oc(-c4ccccc4)nc3c2)CC1          IC50             µM           =             59
 1  Cn1c(Cc2ccc3c(c2)OCC3)nc2cc(O[C@H]3CC[C@@](F)(c4nnn[nH]4)CC3)ccc21          IC50             µM           =          0.015
 2  Cc1cccc(Cc2nc3ccc(O[C@H]4CC[C@@H](C(=O)O)CC4)cc3n2C)c1          IC50             µM           >            200
 3  Cc1cccc(Cc2c(C#N)c3cc(O[C@H]4CC[C@@H](C(=O)O)CC4)ccc3n2C)c1          IC50             µM           =            0.6
 4  Cc1cccc(Cc2c(C(N)=O)c3cc(O[C@H]4CC[C@@H](C(=O)O)CC4)ccc3n2C)c1          IC50             µM           =           0.44
 5  Cc1cccc(COc2nc3cc(O[C@H]4CC[C@@H](C(=O)O)CC4)ccc3n2C)c1          IC50             µM           =            8.1
 6  Cc1cccc(Cc2cc3cc(O[C@H]4CC[C@@H](C(=O)O)CC4)ccc3n2C)c1          IC50             µM           =            0.4
 7  Cc1cccc(Cc2nc3cc(O[C@H]4CC[C@@H](C(=O)O)CC4)ccc3n2C)c1          IC50             µM           =           0.03
 8  Cc1cccc(Cc2nc3cc(O[C@H]4CC[C@@H](C(N)=O)CC4)ccc3n2C)c1          IC50             µM           =           0.19
 9  Cc1cccc(Cc2nc3cc(O[C@H]4CC[C@@H](C(=O)O)CC4)cc(Cl)c3n2C)c1          IC50             µM           =           0.17
10  Cc1ccccc1Cc1nc2cc(O[C@H]3CC[C@@H](C(=O)O)CC3)ccc2n1C          IC50             µM           =            5.4
11  Cc1cccc(Cn2nc3cc(O[C@H]4CC[C@@H](C(=O)O)CC4)ccc3c2C)c1          IC50             µM           =          0.053
12  Cc1cccc(Cc2nc3cc(O[C@H]4CC[C@@H](c5noc(=O)[nH]5)CC4)ccc3n2C)c1          IC50             µM           =            0.1
13  Cn1c(Cc2cccc(C#N)c2)nc2cc(O[C@H]3CC[C@@H](C(=O)O)CC3)ccc21          IC50             µM           =             22
14  Cn1c(Cc2cccc(C(F)(F)F)c2)nc2cc(O[C@H]3CC[C@@H](C(=O)O)CC3)ccc21          IC50             µM           =          0.086
15  Cc1cccc(Cc2nc3cc(O[C@H]4CC[C@@H](C(=O)O)CC4)ccc3n2C(C)C)c1          IC50             µM           >            200
16  Cc1cccc(Cc2nc3cc(O[C@H]4CC[C@@H](C(=O)O)CC4)ncc3n2C)c1          IC50             µM           =             46
17  Cn1c(Cc2ccc3c(c2)OCC3)nc2cc(O[C@H]3CC[C@@H](C(=O)O)CC3)ccc21          IC50             µM           =          0.036
18  Cc1ccc(Cc2nc3cc(O[C@H]4CC[C@@H](C(=O)O)CC4)ccc3n2C)cc1          IC50             µM           =           0.08
19  Cc1cccc(Cc2nc3cc(O[C@H]4CC[C@@H](C(=O)O)CC4)c(Cl)cc3n2C)c1          IC50             µM           =            0.1
20  Cc1cccc(Cc2nc3nc(O[C@H]4CC[C@@H](C(=O)O)CC4)ccc3n2C)c1          IC50             µM           =          0.079
21  O=c1c2ccccc2oc2ccc(O[C@H]3CC[C@H](C(=O)O)CC3)cc12          IC50             µM           =            1.4
22  Cc1cccc(Cc2nc3cc(O[C@H]4CC[C@@H](c5nnn[nH]5)CC4)ccc3n2C)c1          IC50             µM           =          0.025
23  Cc1cccc(Oc2nc3cc(O[C@H]4CC[C@@H](C(=O)O)CC4)ccc3n2C)c1          IC50             µM           =             21

----------
Experiment: Tmax in rat at 1 mg/kg, po
Format: ADME, organism-based
Conditions: in vivo
Readout Kind: Tmax (h)

>>> df
                            molecule_smiles  numeric_value
0  Cc1cccc(Cc2nc3cc(O[C@H]4CC[C@@H](C(=O)O)CC4)ccc3n2C)c1            2.5

----------
Biological target: UniProt P33121
Sequence (P33121 whole entry): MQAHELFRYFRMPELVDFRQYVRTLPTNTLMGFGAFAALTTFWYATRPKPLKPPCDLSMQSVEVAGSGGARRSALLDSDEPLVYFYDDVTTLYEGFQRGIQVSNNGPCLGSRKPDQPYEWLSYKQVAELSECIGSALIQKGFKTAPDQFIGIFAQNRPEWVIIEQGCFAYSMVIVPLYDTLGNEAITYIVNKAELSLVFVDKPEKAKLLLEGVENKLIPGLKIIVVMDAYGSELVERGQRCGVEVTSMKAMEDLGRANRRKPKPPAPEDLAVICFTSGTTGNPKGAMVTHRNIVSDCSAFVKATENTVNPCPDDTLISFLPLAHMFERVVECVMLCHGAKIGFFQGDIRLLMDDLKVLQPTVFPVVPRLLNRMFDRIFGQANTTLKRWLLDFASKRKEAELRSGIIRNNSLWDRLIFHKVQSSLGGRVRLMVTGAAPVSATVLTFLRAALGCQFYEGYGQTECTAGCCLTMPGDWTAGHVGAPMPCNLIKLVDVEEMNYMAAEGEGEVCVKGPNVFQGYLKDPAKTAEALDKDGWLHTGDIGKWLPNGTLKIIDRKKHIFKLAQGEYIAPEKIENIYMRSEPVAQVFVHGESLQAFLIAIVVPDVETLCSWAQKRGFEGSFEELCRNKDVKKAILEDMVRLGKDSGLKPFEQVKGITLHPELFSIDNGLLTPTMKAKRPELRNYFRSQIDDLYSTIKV
Assay: Inhibition of ACSL1 (unknown origin) assessed as reduction in […] prodution incubated for 90 mins in presence of Coenzyme A, ATP and MgCl2 by MALDI-TOF MS analysis
pIC50: −log10 of the molar value.
Attribute: pIC50
Readout Kind: pIC50

>>> df
                            molecule_smiles    study_target  comparator  numeric_value
0  O=C(O)c1ccc(Oc2ccc3oc4ccccc4c(=O)c3c2)cc1  UniProt P33121           <           3.70
1     O=C(O)CCCCCCOc1ccc2oc3ccccc3c(=O)c2c1  UniProt P33121           =           6.51
2       O=C(O)CCCCOc1ccc2oc3ccccc3c(=O)c2c1  UniProt P33121           =           5.77
3  O=c1c2ccccc2oc2ccc(O[C@H]3CC[C@@H](C(=O)O)CC3)cc12  UniProt P33121           =           6.62
4  O=c1c2ccccc2oc2ccc(OC[C@H]3CC[C@H](C(=O)O)CC3)cc12  UniProt P33121           <           3.70
5  O=C(O)C[C@H]1CC[C@@H](Oc2ccc3oc4ccccc4c(=O)c3c2)CC1  UniProt P33121           =           4.74
6  O=c1c2ccccc2oc2ccc(O[C@H]3CC[C@H](C(=O)O)CC3)cc12  UniProt P33121           <           3.70
7  O=c1c2ccccc2oc2ccc(OC[C@H]3CC[C@@H](C(=O)O)CC3)cc12  UniProt P33121           <           3.70
8  O=C(O)C[C@H]1CC[C@H](Oc2ccc3oc4ccccc4c(=O)c3c2)CC1  UniProt P33121           <           3.70
